Experimental Details: NCI Yeast Anticancer Drug Screen. Data for the rad50 strain (AID 155);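 also: 0% = growth of vehicle-only cultures of the same strain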
Condition: S. cerevisiae rad50 strain growth inhibition, active compounds read high; at 50.0 µM unless noted
Procedure: Growth inhibition of yeast strains with defined genetic alterations is measured as a screen for potential anti-cancer activity. Selected strains with alterations in DNA damage repair or cell cycle control were exposed to compounds and growth inhibition was measured relative to vehicle treated controls. The strain used in this assay is rad50
This is part of a sample that, as a whole, favours compounds with a hit. Of some 79,000 tested, about 15% had one in any assay.
growth inhibition values by entry
Test Readout: growth inhibition (%)

{"Compound": "c1nc2nc(N3CCOCC3)nc(N3CCOCC3)c2[nH]1", "Unit": "%", "Measured Value": 11.8}
{"Compound": "CCC1(CC)C(=O)NN(C(=O)c2ccc(Cl)cc2)C1=O", "Unit": "%", "Measured Value": -4.9}
{"Compound": "CC1(C)OC2OC3C(O)C(=O)OC3C2O1 (configuration not stated)", "Unit": "%", "Measured Value": -36.8}
{"Compound": "CN(C)/C=N/n1c2ccccc2c2ccccc21", "Unit": "%", "Measured Value": -1.7}
{"Compound": "COc1ccc(C2=C(N)c3ncccc3C2=O)cc1", "Unit": "%", "Measured Value": 5.55}
{"Compound": "O=C(O)CSCC(=O)Nc1ccccc1Cl", "Unit": "%", "Measured Value": -11.6}
{"Compound": "CCCCN(CCCC)C(=O)C(=O)C(C(=O)c1ccc(OC)cc1)c1ccc(OC)cc1 (configuration not stated)", "Unit": "%", "Measured Value": -8.95}
{"Compound": "Cc1nc(Nc2nc3ccccc3[nH]2)[nH]c(=O)c1CCO", "Unit": "%", "Measured Value": 9.6}
{"Compound": "CCC(=O)C(C)=O", "Unit": "%", "Measured Value": 16.9}
{"Compound": "CC(=O)C1=CCCCC1", "Unit": "%", "Measured Value": 6.1}
{"Compound": "CS(=O)(=O)OCCN(CCOS(C)(=O)=O)c1ccc([N+](=O)[O-])cc1[N+](=O)[O-]", "Unit": "%", "Measured Value": 22.6}
{"Compound": "CCOc1ccccc1N=Nc1c(-c2ccccc2)nn(C(=O)CC(=O)Nc2cccc(Cl)c2)c1-c1ccccc1", "Unit": "%", "Measured Value": 12.6}

----------
Experimental Details: NCI Yeast Anticancer Drug Screen. Data for the rad50 strain (AID 155);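 also: 0% = growth of vehicle-only cultures of the same strain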
Condition: S. cerevisiae rad50 strain growth inhibition; at 50.0 µM unless noted
Method: Growth inhibition of yeast strains with defined genetic alterations is measured as a screen for potential anti-cancer activity. Selected strains with alterations in DNA damage repair or cell cycle control were exposed to compounds and growth inhibition was measured relative to vehicle treated controls. The strain used in this assay is rad50
The panel holds about 79,000 compounds, 15% with a hit somewhere; the sample as a whole holds those more often. Calls of active or inactive are those of the source. Rule as the data show it: active = growth inhibition above about 70%; inactive = the rest.
Classes used: active, inactive

{"Compound": "CN(C)C1=NS(=O)(=O)c2ccccc21", "Class Name": "inactive"}
{"Compound": "CC1CCC2C(C)C(=O)OC2C2(C)C(=O)C=CC12 (configuration not stated)", "Class Name": "inactive"}
{"Compound": "COc1cc(C2c3cc4c(cc3OC(N3CCOCC3)C2C)OCO4)cc(OC)c1O (configuration not stated)", "Class Name": "inactive"}
{"Compound": "C/C(CCC(CC(=O)O)C(C)C)=N\\NC(N)=O (configuration not stated)", "Class Name": "inactive"}
{"Compound": "CCCCCCCCCC(=O)N1CCCC(C)C1 (configuration not stated)", "Class Name": "active"}
{"Compound": "Cc1ccc([N+](=O)[O-])cc1NC(=O)Oc1ccc(Cl)cc1Cl", "Class Name": "inactive"}
{"Compound": "CCOC(=O)C1=CC(C(=O)OCC)=C2C=CC=C3C=CC=C1N32", "Class Name": "inactive"}
{"Compound": "CC(C)CCNc1ccccc1", "Class Name": "inactive"}
{"Compound": "COc1ccc(CCn2c(=O)c3ccccc3n(C)c2=O)cc1", "Class Name": "inactive"}
{"Compound": "O=C1C(c2ccccc2)=C(c2ccccc2)C1(Cl)Cl", "Class Name": "inactive"}
{"Compound": "Cc1ccccc1-c1nc2c(N)nc(N)nc2nc1N", "Class Name": "inactive"}
{"Compound": "CCCC(=O)N(CCC(C)C)c1ccccc1", "Class Name": "inactive"}

----------
Experimental Details: NCI Yeast Anticancer Drug Screen. Data for the mec2-1 strain (AID 157)
Condition: S. cerevisiae mec2-1 strain, active compounds read high; at 50.0 µM unless noted
Description: Growth inhibition of yeast strains with defined genetic alterations is measured as a screen for potential anti-cancer activity. Selected strains with alterations in DNA damage repair or cell cycle control were exposed to compounds and growth inhibition was measured relative to vehicle treated controls. The strain used in this assay is mec2-1
This is part of a sample that, as a whole, favours compounds with a hit. Of some 79,000 tested, about 15% had one in any assay.
Test Readout: growth inhibition (%)

{"Compound": "CC1SCc2nc3ccccc3n21 (configuration not stated)", "Test Readout": "growth inhibition", "Measured Value": -10.8}
{"Compound": "CCCSc1ncnc2nc[nH]c12", "Test Readout": "growth inhibition", "Measured Value": -1}
{"Compound": "CC(=O)CCCCC(=O)Nc1ccc(CC(NC(=O)OC(C)(C)C)C(=O)NCC(=O)OCc2ccccc2)cc1 (configuration not stated)", "Test Readout": "growth inhibition", "Measured Value": -4.5}
{"Compound": "CCN(CC)C(=O)/C=C/c1ccccc1", "Test Readout": "growth inhibition", "Measured Value": -28.6}
{"Compound": "Cc1c(N(C)CN(C)c2c(C)n(C)n(-c3ccccc3)c2=O)c(=O)n(-c2ccccc2)n1C", "Test Readout": "growth inhibition", "Measured Value": -27.4}
{"Compound": "C(=Nc1ccc(N=Cc2ccco2)cc1)c1ccco1", "Test Readout": "growth inhibition", "Measured Value": 2.3}
{"Compound": "CCN(CCN1CCCCC1)c1ccccn1", "Test Readout": "growth inhibition", "Measured Value": 1.3}
{"Compound": "O=C(O)CCC(CC(=O)O)C(=O)O (configuration not stated)", "Test Readout": "growth inhibition", "Measured Value": 4.95}
{"Compound": "Cc1ccc(Cl)cc1NC(=O)c1ccccc1", "Test Readout": "growth inhibition", "Measured Value": -1.25}
{"Compound": "CCOc1cc(OCC)c2c(c1)C(=O)OC2=O", "Test Readout": "growth inhibition", "Measured Value": -3.8}
{"Compound": "Cc1cc(S(=O)(=O)Nc2n[nH]c(N)n2)c(S)cc1Cl", "Test Readout": "growth inhibition", "Measured Value": 7.45}
{"Compound": "CCOC(=O)C1=C(C)O/C(=C/c2cccc(Cl)c2)C1=O", "Test Readout": "growth inhibition", "Measured Value": 35.2}

----------
Below, each entry is listed alongside its reported growth inhibition.
Experimental Details: NCI Yeast Anticancer Drug Screen. Data for the cln2 rad14 strain (AID 165);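 also: 0% = growth equal to vehicle treated cultures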
Condition: S. cerevisiae cln2 rad14 strain, active compounds read high; at 50.0 µM unless noted
The panel holds about 79,000 compounds, 15% with a hit somewhere; the sample as a whole holds those more often. The source made the active and inactive calls. Rule as the data show it: active = growth inhibition above about 70%; inactive = the rest.

{"Compound": "CS/C(=N\\c1nccs1)NC(=O)c1cccc(Cl)c1", "growth inhibition": "18.8% (inactive)"}
{"Compound": "C=CCC1(CN(C)C)CC/C(=C\\c2ccc(Cl)cc2)C1=O (configuration not stated)", "growth inhibition": "42.2% (inactive)"}
{"Compound": "O=C(O)c1cc(C(=O)O)cc(C(=O)O)c1", "growth inhibition": "-56.9% (inactive)"}
{"Compound": "COc1ccc(/C=N/NC(=S)NN)cc1", "growth inhibition": "-18.9% (inactive)"}
{"Compound": "O=S(=O)(O)C(I)S(=O)(=O)O", "growth inhibition": "-18.2% (inactive)"}
{"Compound": "COc1ccc(C(OC(=O)Oc2ccccc2)c2ccccc2)cc1 (configuration not stated)", "growth inhibition": "-20.1% (inactive)"}
{"Compound": "Cc1nc(Nc2ccc(Cl)cc2)c2cnn(-c3ccc(Cl)cc3)c2n1", "growth inhibition": "-41% (inactive)"}
{"Compound": "C=CCSC(=S)Nc1nc2ccc([N+](=O)[O-])cc2s1", "growth inhibition": "7.8% (inactive)"}
{"Compound": "Cn1cnc2ncnc(Cl)c21", "growth inhibition": "-19.1% (inactive)"}
{"Compound": "CCOC(=O)C(CC(C)C)NC(=O)c1c2nc3c(C(=O)NC(CC(C)C)C(=O)OCC)cc(NC(C)=O)c(C)c3oc-2c(C)c(=O)c1N (configuration not stated)", "growth inhibition": "-4.95% (inactive)"}
{"Compound": "CC(C)(C)C(C)(C)SSC(C)(C)C(C)(C)C", "growth inhibition": "7.4% (inactive)"}
{"Compound": "COc1cccc(C(=O)C2N=NCC2c2ccccc2)c1 (configuration not stated)", "growth inhibition": "-15.2% (inactive)"}
